Please respond with reported Kd for every item in the list.
Target: T1, native Ovr110 protein on tumor cells (ZR-75-1, SKBR3, RL95.2, OVCAR3) (human, UniProt Q7Z7D3 25-282)
T1 construct: whole, on cells; Endogenous protein of Ovr110-positive tumor cell lines; also called B7-H4; B7x
T1 sequence (looked up): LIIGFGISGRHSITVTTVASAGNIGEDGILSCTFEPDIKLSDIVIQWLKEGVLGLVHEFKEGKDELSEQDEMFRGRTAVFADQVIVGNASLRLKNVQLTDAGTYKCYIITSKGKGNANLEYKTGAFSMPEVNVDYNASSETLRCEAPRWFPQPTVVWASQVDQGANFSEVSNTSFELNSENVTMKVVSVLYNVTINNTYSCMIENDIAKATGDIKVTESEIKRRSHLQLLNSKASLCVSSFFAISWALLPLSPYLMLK
Assay: flow cytometry titration of fluorescein-labeled MAb on ZR75-1 cells; one-site fit
Answers are plain numbers, in nM.

| Binder | Kd [nM] |
| --- | --- |
| Ovr110.Q23 (antibody, IgG1, V domains shown, Mouse hybridoma MAb; also called Q23.6) VH: QVQLQQSGAELMKPGASVKISCKATGYTFSSYWIEWVKQRPGHGLEWIGEILPGSGITKYNEKFKTKATFTADTSSNTAYMQLSSLTSEDSAVYYCARYYFGSVNFYFDCWGQGTTLTVSS VL: QAVVTQESALTTSPGETVTLTCRSSTGAVTTSNYANWVQEKPDHLFTGLIGGTDNRPPGVPARFSGSLIGDKAALTITGTQTEDEAIYFCALWYSNHWVFGGGTKLTVLG | 5.66 |

*Q* What value of measured Kd is listed for Ovr110.Q19 (antibody, IgG1, V domains shown, Mouse hybridoma MAb; also called Q19.6; Ovr110.Q19.6) VH: DVLLQESGPGLVKASQSLSLTCSVTGYSITSGYFWNWIRQFPGNKLEWMGYISYDGGNSYNPSLKNRISITRDTSKNQFFLRMKSVTAEDTATYYCARKALWLRFDYWGQGTTLTVSS VL: EIVLTQSPAIMSVYLGEKVTMTCSASLSVSYMHWYQQKSSTSPKLWIYDTSKVASGVPGRFSGSGSGNSYSLTISSMEAEDVATYYCFQGSGYPFTFGSGTKLEIKR ?
*A* 0.53

Source listed as patent US20100136009A1.
